- tested-system: MERTK (UniProt Q12866)
- Sequence (Q12866 whole entry, looked up): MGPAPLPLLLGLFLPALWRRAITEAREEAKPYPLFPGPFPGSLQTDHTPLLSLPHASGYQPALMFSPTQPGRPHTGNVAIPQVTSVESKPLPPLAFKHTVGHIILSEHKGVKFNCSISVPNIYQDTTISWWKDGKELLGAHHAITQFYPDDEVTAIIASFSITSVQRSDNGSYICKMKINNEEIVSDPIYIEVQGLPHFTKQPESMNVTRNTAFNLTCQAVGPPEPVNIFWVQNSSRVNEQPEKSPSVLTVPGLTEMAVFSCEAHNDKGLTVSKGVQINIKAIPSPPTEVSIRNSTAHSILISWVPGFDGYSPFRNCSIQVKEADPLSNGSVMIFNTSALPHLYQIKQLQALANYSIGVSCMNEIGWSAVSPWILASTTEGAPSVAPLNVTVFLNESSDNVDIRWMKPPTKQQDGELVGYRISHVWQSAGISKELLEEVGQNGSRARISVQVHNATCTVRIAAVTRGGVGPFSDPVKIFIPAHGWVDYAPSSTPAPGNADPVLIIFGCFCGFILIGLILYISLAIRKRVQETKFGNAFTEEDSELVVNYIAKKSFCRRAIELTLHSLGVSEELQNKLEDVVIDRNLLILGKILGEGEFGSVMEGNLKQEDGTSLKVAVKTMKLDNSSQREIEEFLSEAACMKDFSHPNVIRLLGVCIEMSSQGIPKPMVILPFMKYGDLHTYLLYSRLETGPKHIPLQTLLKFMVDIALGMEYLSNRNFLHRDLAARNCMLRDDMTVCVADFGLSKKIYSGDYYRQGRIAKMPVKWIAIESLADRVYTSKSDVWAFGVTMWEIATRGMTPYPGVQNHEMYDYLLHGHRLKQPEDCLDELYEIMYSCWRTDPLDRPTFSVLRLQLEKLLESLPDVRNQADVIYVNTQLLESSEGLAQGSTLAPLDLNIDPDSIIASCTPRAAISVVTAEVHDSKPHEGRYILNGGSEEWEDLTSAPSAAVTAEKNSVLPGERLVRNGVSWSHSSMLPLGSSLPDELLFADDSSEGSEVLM
- method-summary: phosphorylation enrichment, bacterial display (enrichment ratio); higher = better substrate or ligand; peptides without Tyr show the background;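 also: 11-residue human phosphosite peptides and single-mutation variants displayed on the E. coli surface, counted by deep sequencing, each peptide's frequency after selection divided by its frequency in the unselected input library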;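 also: frequency after pTyr selection over input frequency; kinase dosed for 20-30% of maximal phosphorylation in three min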
Would you kindly list phosphorylation enrichment for each of these sequences?
Give bare numbers.

These recorded examples may help you get a feel for the data.
{"columns": ["record-sequence", "measurement-label", "numeric-readout"],
 "data": [
  ["GKGGSYSKAEW [HLA-E_Y341]", "phosphorylation enrichment", 0.405],
  ["AVEDQYFCVDC [FHL1_Y207_YF]", "phosphorylation enrichment", 0.622],
  ["SILTVYSKDNF [PANK2_Y400_A398T_YF]", "phosphorylation enrichment", 0.454],
  ["YEEDSYSHIMA [FDPS_Y388]", "phosphorylation enrichment", 0.561],
  ["YSIDHYLGKEM [G6PD_Y202_R198S]", "phosphorylation enrichment", 1.3],
  ["AAGGRYDGLVG [HARS1_Y363]", "phosphorylation enrichment", 0.378],
  ["PDGHEYIYVDP [PDGFRA_Y572]", "phosphorylation enrichment", 1.46],
  ["DLLMQHPKAQG [FAM83C_Y600_Y600H]", "phosphorylation enrichment", 0.53],
  ["EKESCYILHSS [PATJ_Y783_E779K]", "phosphorylation enrichment", 0.533],
  ["FNNPAYFVLEG [INPPL1_Y986_YF]", "phosphorylation enrichment", 3.7]
]}

Parameters: items (list). Returns: phosphorylation enrichment for each item.
1. LRRFIYRPPDR [OTOF_Y1231]
2. PDGVEYLKNDP [GRIN3A_Y831]
3. IRKTEYPFSSE [ATP2C1_Y452_A450T]

Response given:
1. 0.824
2. 0.389
3. 0.348

Challenge: Looking for the measured phosphorylation enrichment of RAVLLYEYVGK [NATD1_Y45] , can you help?
Response given: 11.4

All values here come from the supplement of paper PMC10065799.
